Target: TRPM8 (Rattus norvegicus)
Construct: from tissue; host or cells: whole animal, female SD rats (in vivo)
Experiment: Confirmation test of inhibitory effects on icilin-induced wet-dog shakes
Type: in vivo
Settings: female SD rats, oral dose 3 mg/kg, icilin 1 mg/kg i.p. 1 hour after dosing, shakes counted for 5 minutes
Source text: Further, TRPM8 inhibitory activity can be evaluated by the efficacy inhibiting the wet-dog shake action which is induced by the administration of Icilin, TRPM8 agonist. Furthermore, an effect on overactive bladder (OAB) can be evaluated by an elongation of micturition interval against overactive bladder induced by acetic acid in accordance with a similar method described in J. Urol., 2001, 166, 1142. Confirmation Test of Inhibitory Effects on Icilin-induced Wet-dog Shakes […]
parameterMeasured: % inhibition of Wet-Dog Shake (%)

Recorded % inhibition of Wet-Dog Shake, per entry:
O=C(N[C@@H](CCO)Cc1ccccn1)c1ccccc1-c1n[nH]c(-c2ccc(Cl)cc2)c1F | 100
O=C(N[C@@H](CCO)Cc1ccccn1)c1cccc(F)c1-c1n[nH]c(-c2ccc(Cl)cc2)c1F | 75
CC(C)(O)[C@@H](Cc1ccccn1)NC(=O)c1cccc(F)c1-c1cc(-c2ccc(Cl)cc2)[nH]n1 | 92
C[C@](O)(CO)[C@@H](Cc1ccccn1)NC(=O)c1cccc(Cl)c1-c1cc(-c2ccc(F)cc2)[nH]n1 | 40
CC(c1ccccn1)[C@@H](NC(=O)c1cccc(F)c1-c1n[nH]c(-c2ccc(F)cc2)c1F)[C@H](O)CO (stereo partly shown) | 42

1: O=C(N[C@@H](CCO)Cc1ncccn1)c1cccc(F)c1-c1cc(-c2ccc(F)cc2)[nH]n1
2: O=C(N[C@@H](CCO)Cc1ccccn1)c1cccc(OC(F)(F)F)c1-c1cc(-c2ccc(F)cc2)[nH]n1
IN: Compare % inhibition of Wet-Dog Shake: is it lower for 1 or for 2 ? Pick one and reply with its label.
OUT: 1

###

Target: TRPM8 (Rattus norvegicus)
Construct: from tissue; host or cells: whole animal, female SD rats (in vivo)
Experiment: Confirmation test of inhibitory effects on icilin-induced wet-dog shakes
Assay type: in vivo
Conditions: female SD rats, oral dose 3 mg/kg, icilin 1 mg/kg i.p. 1 hour after dosing, shakes counted for 5 minutes
parameterMeasured: % inhibition of Wet-Dog Shake (%)

Recorded % inhibition of Wet-Dog Shake, per entry:
O=C(N[C@H](Cc1ccccn1)C[C@H](O)CO)c1cccc(F)c1-c1cc(-c2ccc(Cl)cc2)[nH]n1 [Example 54-7] | 41
COC(c1ccccn1)[C@H](CO)NC(=O)c1cccc(F)c1-c1n[nH]c(-c2ccc(F)cc2)c1F (some centres unmarked) [Example 43-16] | 97
COC(c1ccccn1)[C@H](CO)NC(=O)c1ccccc1-c1n[nH]c(-c2ccc(F)cc2)c1F (some centres unmarked) [Example 43-17] | 78
C[C@](O)(CO)[C@@H](Cc1ccccn1)NC(=O)c1cccc(F)c1-c1cc(-c2ccc(F)cc2)[nH]n1 [Example 1-217] | 75
CC(c1ccccn1)[C@@H](NC(=O)c1cccc(F)c1-c1cc(-c2ccc(Cl)cc2)[nH]n1)[C@H](O)CO (some centres unmarked) [Example 54-16] | 86
CO[C@@H](CO)[C@@H](Cn1cccn1)NC(=O)c1cccc(F)c1-c1n[nH]c(-c2ccc(F)cc2)c1F [Example 27-24] | 99
O=C(N[C@H](Cc1ncccn1)C(F)(F)CO)c1cccc(F)c1-c1cc(-c2ccc(F)cc2)[nH]n1 [Example 50-4] | 100
CO[C@H](CO)[C@@H](Cc1ccccn1)NC(=O)c1cccc(Cl)c1-c1cc(-c2ccc(F)cc2)[nH]n1 [Example 43-4] | 77

a: O=C(N[C@H](Cc1ccccn1)[C@H](F)CO)c1cccc(F)c1-c1cc(-c2ccc(Cl)cc2)[nH]n1 [Example 50-7]
b: COC[C@@H](O)[C@@H](Cc1ccccn1)NC(=O)c1cccc(Cl)c1-c1cc(-c2ccc(F)cc2)[nH]n1 [Example 27-5]
c: Cn1ccnc1C[C@H](CO)NC(=O)c1cccc(F)c1-c1cc(-c2ccc(F)cc2)[nH]n1 [Example 1-183]
IN: Order the records so the highest % inhibition of Wet-Dog Shake appears first and the lowest last. Answer by naming the labels in the order asked.
OUT: a, b, c
(a: 99%, b: 52%, c: 36%)

###

Target: TRPM8 (Rattus norvegicus)
Construct: from tissue; host or cells: whole animal, female SD rats (in vivo)
Test: Confirmation test of inhibitory effects on icilin-induced wet-dog shakes
Type: in vivo
Settings: female SD rats, oral dose 3 mg/kg, icilin 1 mg/kg i.p. 1 hour after dosing, shakes counted for 5 minutes
Source text: Further, TRPM8 inhibitory activity can be evaluated by the efficacy inhibiting the wet-dog shake action which is induced by the administration of Icilin, TRPM8 agonist. Furthermore, an effect on overactive bladder (OAB) can be evaluated by an elongation of micturition interval against overactive bladder induced by acetic acid in accordance with a similar method described in J. Urol., 2001, 166, 1142. Confirmation Test of Inhibitory Effects on Icilin-induced Wet-dog Shakes […]
parameterMeasured: % inhibition of Wet-Dog Shake (%)

Recorded % inhibition of Wet-Dog Shake, per entry:
COC(c1ccccn1)[C@H](CO)NC(=O)c1cccc(Cl)c1-c1cc(-c2ccc(F)cc2)[nH]n1 (stereo partly shown) | 92
O=C(N[C@H](Cc1ccccn1)[C@H](F)CO)c1cccc(Cl)c1-c1cc(-c2ccc(F)cc2)[nH]n1 | 80
CC(O)(c1ccccn1)[C@H](CO)NC(=O)c1cccc(F)c1-c1cc(-c2ccc(F)cc2)[nH]n1 (stereo partly shown) | 100
O=C(N[C@H](Cc1ccccn1)C(CO)CO)c1cccc(F)c1-c1cc(-c2ccc(F)cc2)[nH]n1 | 69
CO[C@H](CO)[C@@H](Cc1ccccn1)NC(=O)c1cccc(F)c1-c1cc(-c2ccc(F)cc2F)[nH]n1 | 100

a: C[C@@](O)(CO)[C@@H](Cc1ccccn1)NC(=O)c1ccccc1-c1cc(-c2ccc(F)cc2)[nH]n1
b: O=C(N[C@@H](CO)Cc1ccccn1)c1ccccc1-c1cc(-c2ccc(Cl)cc2)[nH]n1
IN: // which entry has the larger % inhibition of Wet-Dog Shake value, a or b ? Pick one and reply with its label.
OUT: a
(a: 97%, b: 46%)

###

Molecular target: TRPM8 (Rattus norvegicus, UniProt Q8R455)
Construct: from tissue; host or cells: whole animal, female SD rats (in vivo)
Sequence (Q8R455 whole entry): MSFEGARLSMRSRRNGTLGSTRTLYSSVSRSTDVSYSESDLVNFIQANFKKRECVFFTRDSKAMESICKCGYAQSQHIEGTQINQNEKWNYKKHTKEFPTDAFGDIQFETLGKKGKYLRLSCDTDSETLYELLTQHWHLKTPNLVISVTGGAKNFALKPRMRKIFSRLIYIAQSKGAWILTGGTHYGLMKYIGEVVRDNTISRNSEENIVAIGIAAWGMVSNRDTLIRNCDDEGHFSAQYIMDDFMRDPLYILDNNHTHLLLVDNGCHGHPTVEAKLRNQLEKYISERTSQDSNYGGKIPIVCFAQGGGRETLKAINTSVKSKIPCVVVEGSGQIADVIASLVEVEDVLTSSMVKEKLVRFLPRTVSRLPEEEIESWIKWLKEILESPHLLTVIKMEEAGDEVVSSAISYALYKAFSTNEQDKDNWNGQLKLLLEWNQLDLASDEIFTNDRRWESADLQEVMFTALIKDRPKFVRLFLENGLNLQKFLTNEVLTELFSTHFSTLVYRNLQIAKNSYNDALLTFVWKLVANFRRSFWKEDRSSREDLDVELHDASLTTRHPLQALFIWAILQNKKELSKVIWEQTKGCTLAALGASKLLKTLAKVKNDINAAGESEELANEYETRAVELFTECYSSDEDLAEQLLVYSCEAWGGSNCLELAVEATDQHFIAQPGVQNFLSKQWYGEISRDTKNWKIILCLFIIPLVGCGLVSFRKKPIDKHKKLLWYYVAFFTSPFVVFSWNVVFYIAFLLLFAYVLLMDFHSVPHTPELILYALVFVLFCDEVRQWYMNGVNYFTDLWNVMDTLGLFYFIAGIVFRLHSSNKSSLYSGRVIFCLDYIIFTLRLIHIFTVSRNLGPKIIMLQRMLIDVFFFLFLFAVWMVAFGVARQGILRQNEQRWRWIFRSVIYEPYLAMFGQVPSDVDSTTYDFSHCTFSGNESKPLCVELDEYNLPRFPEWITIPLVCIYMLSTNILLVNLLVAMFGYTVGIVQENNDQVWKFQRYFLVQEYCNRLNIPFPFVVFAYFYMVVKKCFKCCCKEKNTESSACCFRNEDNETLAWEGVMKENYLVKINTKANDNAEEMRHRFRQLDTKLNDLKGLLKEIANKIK
Experiment: Confirmation test of inhibitory effects on icilin-induced wet-dog shakes
Assay type: in vivo
Conditions: female SD rats, oral dose 1 mg/kg, icilin 1 mg/kg i.p. 1 hour after dosing, shakes counted for 5 minutes
parameterMeasured: % inhibition of Wet-Dog Shake (%)

O=C(N[C@@H](CO)Cc1ccccn1)c1ccccc1-c1n[nH]c(-c2ccc(F)cc2)c1F [Example 1-97] | 50

a: CC(C)(O)[C@@H](Cc1ccccn1)NC(=O)c1cccc(F)c1-c1n[nH]c(-c2ccc(F)cc2)c1F [Example 33-2]
b: O=C(N[C@H](Cc1ncccn1)[C@H](F)CO)c1cccc(F)c1-c1n[nH]c(-c2ccc(F)cc2)c1F [Example 50-10]
IN: Compare % inhibition of Wet-Dog Shake: is it lower for a or for b ? Pick one and reply with its label.
OUT: b
(b: 56%, a: 88%)

A: COC[C@@H](O)[C@@H](Cn1nccn1)NC(=O)c1cccc(F)c1-c1cc(-c2ccc(F)cc2)[nH]n1 [Example 60-1]
B: CO[C@H](CO)[C@@H](Cc1cscn1)NC(=O)c1cccc(F)c1-c1cc(-c2ccc(F)cc2)[nH]n1 [Example 27-21]
C: O=C(N[C@@H](CCO)Cc1ccccn1)c1cccc(F)c1-c1n[nH]c(-c2ccc(F)cc2)c1F [Example 28-1]
IN: Order the records, beginning with the lowest % inhibition of Wet-Dog Shake and ending with the highest. Answer by naming the labels in the order asked.
OUT: B, C, A

###

Target: TRPM8 (Rattus norvegicus)
Construct: from tissue; host or cells: whole animal, female SD rats (in vivo)
Test: Confirmation test of inhibitory effects on icilin-induced wet-dog shakes
Type: in vivo
Details: female SD rats, oral dose 3 mg/kg, icilin 1 mg/kg i.p. 1 hour after dosing, shakes counted for 5 minutes
parameterMeasured: % inhibition of Wet-Dog Shake (%)

CO[C@H](CO)[C@@H](Cn1cc(Cl)cn1)NC(=O)c1cccc(F)c1-c1cc(-c2ccc(F)cc2)[nH]n1 | 47

P: C[C@@](Cc1ccccc1)(NC(=O)c1ccccc1-c1cc(-c2ccc(F)cc2)[nH]n1)C(N)=O
Q: O=C(N[C@H](Cn1cccn1)[C@H](F)CO)c1cccc(F)c1-c1cc(-c2ccc(F)cc2F)[nH]n1
IN: Compare % inhibition of Wet-Dog Shake: is it lower for P or for Q ? Pick one and reply with its label.
OUT: P
(P: 46%, Q: 70%)

###

Target: TRPM8 (Rattus norvegicus)
Construct: from tissue; host or cells: whole animal, female SD rats (in vivo)
Assay: Confirmation test of inhibitory effects on icilin-induced wet-dog shakes
Type: in vivo
Conditions: female SD rats, oral dose 3 mg/kg, icilin 1 mg/kg i.p. 1 hour after dosing, shakes counted for 5 minutes
parameterMeasured: % inhibition of Wet-Dog Shake (%)

Recorded % inhibition of Wet-Dog Shake, per entry:
O=C(NCC(O)c1ccccn1)c1cccc(F)c1-c1cc(-c2ccc(F)cc2)[nH]n1 (stereo not shown) [Example 1-194] | 60
COC(c1ccccn1)[C@@H](NC(=O)c1cccc(F)c1-c1cc(-c2ccc(F)cc2)[nH]n1)[C@H](O)CO (stereo partly shown) [Example 54-19] | 68
O=C(N[C@@H](CCO)C(O)c1ccccn1)c1ccccc1-c1n[nH]c(-c2ccc(F)cc2)c1F (stereo partly shown) [Example 1-206] | 55

P: O=C(N[C@@H](CO)Cc1ccccc1)c1cccc(F)c1-c1cc(-c2ccc(F)cc2)[nH]n1 [Example 1-86]
Q: O=C(N[C@H](Cc1ncccn1)[C@@H](O)CO)c1cccc(F)c1-c1cc(-c2ccc(F)cc2)[nH]n1 [Example 31-1]
IN: Compare % inhibition of Wet-Dog Shake: is it lower for P or for Q ? Pick one and reply with its label.
OUT: Q

A: O=C(N[C@H](Cc1ccccn1)[C@@H](O)CO)c1cccc(F)c1-c1n[nH]c(-c2ccc(F)cc2)c1F [Example 54-9]
B: CC(C)(O)[C@@H](Cc1ccccn1)NC(=O)c1cccc(F)c1-c1cc(-c2ccc(F)cc2)[nH]n1 [Example 33-1]
IN: Compare % inhibition of Wet-Dog Shake: is it lower for A or for B ? Pick one and reply with its label.
OUT: A
